System: M14
experimentalDetails: NCI tumour cell line growth inhibition, 48 h
Calls of active or inactive are those of the source. Cut-off read from the data, not from the text of the source: active = GI50 up to about 1.1 µM and inactive = higher.
Classes used: class 1 (active), class 0 (inactive)

| molecule | answerLabel |
| --- | --- |
| COc1cccc(C2c3cc4c(cc3OC(N3CCCC3)C2C)OCO4)c1O (stereo not drawn) | class 0 |
| CC#Cc1c(O)c2c(c(O)c1C#CC)C(=O)c1ccccc1C2=O | class 0 |
| CN(C)CCn1c(=O)c2ccc(NCCNCCO)c3c(=O)c4ccccc4n(c1=O)c23 | class 1 |
| CCCCN/C(=N/C#N)NCc1ccccc1 | class 0 |
| NNC(=O)CCCCCCCC(=O)O | class 0 |
| Nc1nc(S)nc(C(=O)Nc2ccc(Cl)c(Cl)c2)c1-c1ccc(Cl)cc1 | class 0 |
| NC1=C(Cl)C(=O)c2c(O)ccc(O)c2C1=O | class 0 |
| COC(=O)/C=C(\S/C(=N\n1cc(C(=O)OC)c(C(=O)OC)c1-c1ccc(C)cc1)c1ccc(C)cc1)C(=O)OC | class 0 |
| ClC1=C(Cl)C2OC3C=CCC3OC2C(Cl)=C1Cl (stereo not drawn) | class 0 |
| Cc1cc(Cl)ccc1NC(=O)C(=O)Cc1nc2ccccc2o1 | class 0 |
| CCCc1cc2c(cc1O)CC[C@@H]1[C@@H]2CC[C@]2(C)[C@@H](O)CC[C@@H]12 | class 0 |
| NC1CC2NC3CCCCC3NC2CC1N (stereo not drawn) | class 0 |
| O=C1C2=C(SCCS2)C(=O)c2c(Sc3ccc(Cl)cc3)c(Sc3ccc(Cl)cc3)c(Sc3ccc(Cl)cc3)c(Sc3ccc(Cl)cc3)c21 | class 0 |
| CCOc1ccc(/C=N\N2C(=O)c3ccccc3C2=O)cc1 | class 0 |
| CO[C@@H]1[C@H](O)CC[C@]2(CO2)[C@H]1[C@@]1(C)O[C@@H]1CC=C(C)C | class 0 |
| Nc1nc(S)nc(C(=O)Nc2nccs2)c1-c1ccccc1 | class 0 |
| COc1cccc(-c2nc(-c3cnccn3)n(C/C=C/c3ccccc3)n2)c1 | class 0 |
| c1csc(-c2cc(-c3cccs3)c(-c3ccsc3)s2)c1 | class 0 |
